Just for reference, PubChem BioAssay (NCATS) is where these values come from.

# measurement.target: Cytochrome P450 1A2 (Homo sapiens) (UniProt P05177)
# Sequence (P05177 whole entry, looked up): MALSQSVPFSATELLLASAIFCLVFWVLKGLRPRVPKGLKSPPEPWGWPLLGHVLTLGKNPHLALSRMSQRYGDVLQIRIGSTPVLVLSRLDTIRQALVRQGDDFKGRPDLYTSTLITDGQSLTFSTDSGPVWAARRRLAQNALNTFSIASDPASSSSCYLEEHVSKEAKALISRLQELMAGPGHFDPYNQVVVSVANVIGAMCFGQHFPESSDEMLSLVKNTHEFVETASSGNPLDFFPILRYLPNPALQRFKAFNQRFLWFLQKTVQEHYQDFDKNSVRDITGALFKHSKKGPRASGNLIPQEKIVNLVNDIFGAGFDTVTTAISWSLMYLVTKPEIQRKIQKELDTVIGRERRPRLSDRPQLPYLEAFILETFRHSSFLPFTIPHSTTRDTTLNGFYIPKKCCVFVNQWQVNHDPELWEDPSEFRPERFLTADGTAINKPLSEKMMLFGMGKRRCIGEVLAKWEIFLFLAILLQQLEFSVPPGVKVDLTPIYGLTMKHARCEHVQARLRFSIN
# protocol: p450-cyp1a2 (AID 410)
# condition.parameters: recombinant CYP1A2, luciferin-ME demethylation, luminescence; series mostly up to 57 µM
Results filed as inconclusive are left out. Activity calls are given as the source filed them. Calls come from the whole dose curve.
Thanks in advance; please answer with one of these: active, inactive

Reference set, count: 2
Test call, this molecule: CN(C)C(N)=NCCC[C@H](N)C(=O)O
inactive

Test call, this molecule: Fc1ccc(C(OCCCc2cnc[nH]2)c2ccc(F)cc2)cc1
active

Next:
Test call, this molecule: COc1cccc(C(=O)NCCN2CCN(c3ccc(Cl)cc3)CC2)c1
active

Test call, this molecule: COc1ccccc1N1CCN(CCCCNS(=O)(=O)c2cccc3c(N(C)C)cccc23)CC1
inactive

Test call, this molecule: Cn1cc(C2=C(c3ccc(Cl)cc3Cl)C(=O)NC2=O)c2ccccc21
active

Test call, this molecule: COc1ccccc1CNCCCCCCNCCCCCCCCNCCCCCCNCc1ccccc1OC
inactive

Test call, this molecule: CCCN(CC1CC1)c1nc(C)nc(Nc2c(Cl)cc(Cl)cc2Cl)c1Cl
inactive

Test call, this molecule: O=S(=O)(c1cccc2c(I)cccc12)N1CCCNCC1
active

Test call, this molecule: CC1(C)CCC=[N+]1[O-]
inactive

Test call, this molecule: Cc1c(Nc2ncccc2C(=O)O)cccc1C(F)(F)F
active

Test call, this molecule: O=C1NC(O)=NC1(c1ccccc1)c1ccccc1
inactive
